experiment: Cytotoxicity in African green monkey COS7 cells assessed as reduction in cell viability incubated for 24 hrs by Alamar blue dye based assay; set-up: species or system COS-7; settings: chlorocebus aethiops
Consider the following compounds; for each one, report its CC50 at 24 h.

May I ask what CC50 at 24 h has been recorded for "O=C(COc1ccc2ccccc2c1)c1ccc(O)cc1O" ?
98.6 µM

CC50 at 24 h lookup needed for "COc1ccc(OCC(=O)c2ccc(O)cc2O)cc1" , thanks.
> 200 µM

What does the data say about its CC50 at 24 h? Entry: "COc1cccc(CCCCCCc2ccccc2)c1C(=O)O"
> 200 µM

For the compound shown here, "O=C(O)c1c(O)cccc1CCc1ccc2ccccc2c1" , give the reported CC50 at 24 h.
117 µM

// returns reported CC50 at 24 h for input "O=C(O)c1c(O)cccc1COCCc1ccccc1"
> 200 µM

// CC50 at 24 h lookup, key: "O=C1N=C(N2CCCC2)S/C1=C/c1ccc(O)cc1O"
> 200 µM

Fill in the blank: the reported CC50 at 24 h of "Cc1cccc2c(=O)c3c(O)cc(O)cc3oc12" is ____.
> 200 µM

* * *

Exercise: for every item that follows, state its recorded CC50 at 24 h.
test: Cytotoxicity in HEK293 cells assessed as reduction in cell viability incubated for 24 hrs by Alamar blue dye based assay; conditions: human

Would you mind telling me what CC50 at 24 h value was observed for "CCN(CC)C(=O)c1c(CCc2ccc3ccccc3c2)cccc1OC" ?
62.6 µM

Endpoint output: CC50 at 24 h of "CCN(CC)C(=O)c1c(CCc2ccc3ccccc3c2)cc(OC)cc1OC" . Value?
85.8 µM

* * *

assay: Plasma concentration in BALB/c mouse xenografted with mouse 4T1.2 cells at 25 mg/kg/day for 10 days measured at day 12; format: ADME, organism-based
measurement-kind: concentration at 240 h (µg/mL)
Field format: number, assumed µg/mL, no unit text.

May I ask what concentration at 240 h has been recorded for "O=C(O)c1c(O)cccc1CCc1ccc2ccccc2c1" ?
55.2

* * *

assay: Plasma concentration in BALB/c mouse xenografted with mouse 4T1.2 cells at 25 mg/kg/day for 10 days measured at day 7; format: ADME, organism-based
measurement-kind: concentration at 240 h (ng/mL)
Only the number, expressed in ng/mL, is required.

Recorded concentration at 240 h for "O=C(O)c1c(O)cccc1CCc1ccc2ccccc2c1" , please?
38300

* * *

target: hERG (KCNH2) (Homo sapiens, UniProt Q12809); assay: Inhibition of human ERG at 10 uM relative to control
Sequence (Q12809 whole entry): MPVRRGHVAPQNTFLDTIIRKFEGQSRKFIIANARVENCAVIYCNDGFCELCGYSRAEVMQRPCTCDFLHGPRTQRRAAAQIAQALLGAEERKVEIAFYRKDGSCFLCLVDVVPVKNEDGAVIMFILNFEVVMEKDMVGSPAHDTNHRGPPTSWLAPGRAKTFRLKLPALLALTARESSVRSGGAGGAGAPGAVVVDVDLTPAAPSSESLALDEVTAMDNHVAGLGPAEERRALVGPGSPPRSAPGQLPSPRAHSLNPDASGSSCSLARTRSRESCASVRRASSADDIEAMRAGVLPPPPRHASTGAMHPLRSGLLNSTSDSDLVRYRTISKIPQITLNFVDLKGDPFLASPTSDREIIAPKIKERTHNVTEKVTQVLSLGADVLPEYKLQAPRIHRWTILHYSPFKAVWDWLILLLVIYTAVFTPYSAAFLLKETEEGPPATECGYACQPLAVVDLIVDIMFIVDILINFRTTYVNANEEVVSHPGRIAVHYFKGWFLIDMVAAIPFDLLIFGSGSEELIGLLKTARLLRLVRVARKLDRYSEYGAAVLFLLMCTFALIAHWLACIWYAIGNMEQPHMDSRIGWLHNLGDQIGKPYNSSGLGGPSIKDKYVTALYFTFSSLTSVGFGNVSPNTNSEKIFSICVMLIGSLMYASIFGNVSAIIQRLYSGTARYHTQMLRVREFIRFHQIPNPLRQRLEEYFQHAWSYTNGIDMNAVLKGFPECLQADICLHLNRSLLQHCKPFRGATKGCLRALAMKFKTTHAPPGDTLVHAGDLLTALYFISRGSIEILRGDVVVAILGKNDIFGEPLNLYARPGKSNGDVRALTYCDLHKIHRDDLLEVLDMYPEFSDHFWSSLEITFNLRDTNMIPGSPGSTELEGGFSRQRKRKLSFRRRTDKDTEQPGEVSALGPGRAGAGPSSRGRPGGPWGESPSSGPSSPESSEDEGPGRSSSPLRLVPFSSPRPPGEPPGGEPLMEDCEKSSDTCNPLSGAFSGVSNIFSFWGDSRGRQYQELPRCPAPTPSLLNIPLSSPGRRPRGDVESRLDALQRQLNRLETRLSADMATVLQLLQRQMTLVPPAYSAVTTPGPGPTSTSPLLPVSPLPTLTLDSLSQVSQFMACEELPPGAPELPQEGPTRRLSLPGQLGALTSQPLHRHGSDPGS
measurement-kind: inhibition at 10 µM (%)
Your answer should be a plain number; it is taken to be in %.

For the record "O=C(O)c1c(O)cccc1CCc1ccc2ccccc2c1" , what value of inhibition at 10 µM is listed for hERG (KCNH2) (Homo sapiens, UniProt Q12809)?
-14

* * *

Give measured CC50 at 24 h for each item. Keep answers brief.
assay: Cytotoxicity in human HepG2 cells assessed as reduction in cell viability incubated for 24 hrs by Alamar blue dye based assay
The response must be a number in µM with no trailing unit.

Request the reported CC50 at 24 h associated with "CCN(CC)C(=O)c1c(CCc2ccc3ccccc3c2)cc(OC)cc1OC"
35.8

Quick one: CC50 at 24 h for "Cc1cc(O)c(C(=O)O)c(CCc2ccc3ccccc3c2)c1" ?
377

Need CC50 at 24 h of "CCN(CC)C(=O)c1c(CCc2ccc3ccccc3c2)cccc1OC" , thanks.
38.5
